- Tested on: rat chronic carcinogenicity bioassay, TD50
- protocol: DSSTox (CPDBAS) Carcinogenic Potency Database Summary Rat Bioassay Results
- condition_description: TD50_Rat_Note: TD50 is harmonic mean of more than one positive test; TargetSites_Rat_Female: clitoral gland; active compounds read low
assay_metric: Potency

                        mol_smiles  assay_metric  value_measured
0  CCn1cc(C(=O)O)c(=O)c2ccc(C)nc21       Potency   201 mg/kg/day

----------
- Tested on: rat chronic carcinogenicity bioassay, TD50
- protocol: DSSTox (CPDBAS) Carcinogenic Potency Database Summary Rat Bioassay Results
- condition_description: TD50_Rat_Note: TD50 is harmonic mean of more than one positive test; TargetSites_Rat_Female: ear Zymbals gland; liver; vascular system; active compounds read low
Potency: recorded values
assay_metric: Potency

>>> df
   mol_smiles                           measured_target  assay_metric  value_measured
0       C=CBr  rat chronic carcinogenicity bioassay, TD50       Potency  18.5 mg/kg/day
1        C=CF  rat chronic carcinogenicity bioassay, TD50       Potency    20 mg/kg/day

----------
- System: rat chronic carcinogenicity bioassay, TD50
- protocol: DSSTox (CPDBAS) Carcinogenic Potency Database Summary Rat Bioassay Results
- condition_description: TD50_Rat_Note: TD50 is harmonic mean of more than one positive test; TargetSites_Rat_Female: liver; mammary gland; skin; active compounds read low
assay_metric: Potency

>>> df
                      mol_smiles  value_measured
0  CC(=O)Nc1ccc2c(c1)Cc1ccccc1-2  1.22 mg/kg/day

----------
- Tested on: rat chronic carcinogenicity bioassay, TD50
- protocol: DSSTox (CPDBAS) Carcinogenic Potency Database Summary Rat Bioassay Results
- condition_description: TargetSites_Rat_Female: esophagus; active compounds read low
assay_metric: Potency

        mol_smiles   value_measured
0  CN(N=O)c1ccccn1  0.214 mg/kg/day

----------
- Tested on: rat chronic carcinogenicity bioassay, TD50
- protocol: DSSTox (CPDBAS) Carcinogenic Potency Database Summary Rat Bioassay Results
- condition_description: TargetSites_Rat_Female: pancreas; active compounds read low
assay_metric: Potency

                              mol_smiles  value_measured
0  O=[N+]([O-])c1ccc(Oc2ccc(Cl)cc2Cl)cc1   420 mg/kg/day

----------
- Test system: rat chronic carcinogenicity bioassay, TD50
- protocol: DSSTox (CPDBAS) Carcinogenic Potency Database Summary Rat Bioassay Results
- condition_description: TargetSites_Rat_Female: ear Zymbals gland; liver; mammary gland; pancreas; urinary bladder; vascular system; active compounds read low
assay_metric: Potency

In [3]: df
Out[3]:
                mol_smiles  value_measured
0  Cn1c(N)nc2c3cccnc3ccc21  3.29 mg/kg/day

----------
- Test system: rat chronic carcinogenicity bioassay, TD50
- protocol: DSSTox (CPDBAS) Carcinogenic Potency Database Summary Rat Bioassay Results
- condition_description: TargetSites_Rat_BothSexes: nasal cavity; active compounds read low
assay_metric: Potency

>>> df
                 mol_smiles  assay_metric  value_measured
0  CNC(=O)c1c(N(C)N=O)ncn1C       Potency     1 mg/kg/day

----------
- Test system: rat chronic carcinogenicity bioassay, TD50
- protocol: DSSTox (CPDBAS) Carcinogenic Potency Database Summary Rat Bioassay Results
- condition_description: TargetSites_Rat_Female: mammary gland; stomach; active compounds read low
assay_metric: Potency

>>> df
                      mol_smiles                           measured_target  value_measured
0  O=[N+]([O-])c1ccc(-c2cscn2)o1  rat chronic carcinogenicity bioassay, TD50  7.68 mg/kg/day

----------
- Test system: rat chronic carcinogenicity bioassay, TD50
- protocol: DSSTox (CPDBAS) Carcinogenic Potency Database Summary Rat Bioassay Results
- condition_description: TD50_Rat_Note: TD50 is harmonic mean of more than one positive test; TD50_Rat_mmol was not calculated for this mixture, but Activiity S; TargetSites_Rat_Female: liver; thyroid gland; active compounds read low
assay_metric: Potency

>>> df
                                   molecule  value_measured
0  CCC(Cl)CCC(Cl)C(Cl)CC(Cl)C(Cl)C(Cl)CCl (stereo unspecified)   222 mg/kg/day

----------
- System: rat chronic carcinogenicity bioassay, TD50
- protocol: DSSTox (CPDBAS) Carcinogenic Potency Database Summary Rat Bioassay Results
- condition_description: TD50_Rat_Note: TD50 is harmonic mean of more than one positive test; greater than ten-fold variation among TD50 values for positive res; TargetSites_Rat_Female: stomach; active compounds read low
assay_metric: Potency

                                   molecule  assay_metric  value_measured
0  COc1ccc2nc(S(=O)Cc3ncc(C)c(OC)c3C)[nH]c2c1 (stereo unspecified)       Potency   119 mg/kg/day

----------
- System: rat chronic carcinogenicity bioassay, TD50
- protocol: DSSTox (CPDBAS) Carcinogenic Potency Database Summary Rat Bioassay Results
- condition_description: TD50_Rat_Note: TD50 is harmonic mean of more than one positive test; greater than ten-fold variation among TD50 values for positive res; TargetSites_Rat_Female: liver; lung; active compounds read low
assay_metric: Potency

>>> print(df.to_string())
                           mol_smiles      value_measured
0  Clc1cc2c(cc1Cl)Oc1cc(Cl)c(Cl)cc1O2  2.35e-05 mg/kg/day

----------
- Tested on: rat chronic carcinogenicity bioassay, TD50
- protocol: DSSTox (CPDBAS) Carcinogenic Potency Database Summary Rat Bioassay Results
- condition_description: TD50_Rat_Note: TD50 is harmonic mean of more than one positive test; TD50_Rat_mmol was not calculated for this mixture, but Activiity S; TargetSites_Rat_Female: ear Zymbals gland; active compounds read low
assay_metric: Potency

>>> print(df.to_string())
                 mol_smiles  value_measured
0  CCn1c2ccccc2c2cc(N)ccc21  26.4 mg/kg/day

----------
- Tested on: rat chronic carcinogenicity bioassay, TD50
- protocol: DSSTox (CPDBAS) Carcinogenic Potency Database Summary Rat Bioassay Results
- condition_description: TargetSites_Rat_Female: urinary bladder; TargetSites_Rat_BothSexes: no positive results; active compounds read low
- Text: The Carcinogenic Potency Database (CPDB) is a unique and widely used international resource of the results of over 6500 chronic, long-term animal cancer tests on over 1500 chemical substances. The CPDB provides easy access to the bioassay literature, with qualitative and quantitative analyses of both positive and negative experiments that have been published over the past 50 years in the general literature and by the National Cancer Institute/National Toxicology Program. […]
assay_metric: Potency

>>> print(df.to_string())
        mol_smiles  assay_metric  value_measured
0  Nc1ccc2ccccc2c1       Potency  61.6 mg/kg/day

----------
- Test system: rat chronic carcinogenicity bioassay, TD50
- protocol: DSSTox (CPDBAS) Carcinogenic Potency Database Summary Rat Bioassay Results
- condition_description: TD50_Rat_Note: TD50 is harmonic mean of more than one positive test; TargetSites_Rat_Female: mammary gland; skin; uterus; active compounds read low
assay_metric: Potency

>>> print(df.to_string())
          mol_smiles   value_measured
0  CCN(N=O)C(=O)NCCO  0.522 mg/kg/day

----------
- Tested on: rat chronic carcinogenicity bioassay, TD50
- protocol: DSSTox (CPDBAS) Carcinogenic Potency Database Summary Rat Bioassay Results
- condition_description: TargetSites_Rat_Female: esophagus; liver; oral cavity; active compounds read low
assay_metric: Potency

                                   compound   value_measured
0  CC1SC(C)N(N=O)C(C)S1 (stereo unspecified)  0.483 mg/kg/day

----------
- Test system: rat chronic carcinogenicity bioassay, TD50
- protocol: DSSTox (CPDBAS) Carcinogenic Potency Database Summary Rat Bioassay Results
- condition_description: TD50_Rat_Note: TD50 is harmonic mean of more than one positive test; harmonic mean of TD50 includes a value for upper 99% confidence li; TargetSites_Rat_Female: liver; active compounds read low
assay_metric: Potency

>>> print(df.to_string())
                                 mol_smiles  assay_metric  value_measured
0    COC(=O)C(C)(C)Oc1ccc(-c2ccc(Cl)cc2)cc1       Potency  4.78 mg/kg/day
1  CC/C(=C(\c1ccccc1)c1ccc(OCCN(C)C)cc1)c1ccccc1       Potency  3.96 mg/kg/day
2              Clc1c(Cl)c(Cl)c(Cl)c(Cl)c1Cl       Potency  3.86 mg/kg/day

----------
- System: rat chronic carcinogenicity bioassay, TD50
- protocol: DSSTox (CPDBAS) Carcinogenic Potency Database Summary Rat Bioassay Results
- condition_description: TD50_Rat_Note: TD50 is harmonic mean of more than one positive test; TargetSites_Rat_Female: esophagus; nasal cavity; active compounds read low
- Description: The Carcinogenic Potency Database (CPDB) is a unique and widely used international resource of the results of over 6500 chronic, long-term animal cancer tests on over 1500 chemical substances. The CPDB provides easy access to the bioassay literature, with qualitative and quantitative analyses of both positive and negative experiments that have been published over the past 50 years in the general literature and by the National Cancer Institute/National Toxicology Program. […]
assay_metric: Potency

>>> df
                                   compound    value_measured
0          CC(O)CN(C)N=O (stereo not drawn)  0.0463 mg/kg/day
1  O=NN1CCCC1c1ccc[n+]([O-])c1 (stereo not drawn)   0.876 mg/kg/day
2     CC(O)CN(CC(C)O)N=O (stereo not drawn)   0.846 mg/kg/day
